Test system: SEM cells
Procedure summary: AUC of viability dose-response curve (% viability x log10 dose units); higher = less sensitive
Condition description: HPLM + 10% dialyzed FBS; 48 h
Attribute measured: AUC of viability dose-response curve
Please reply with the value in numeric form only.

input: Requested field: AUC of viability dose-response curve. Item: O=c1c(-c2ccc(O)cc2)coc2cc(O[C@@H]3O[C@H](CO)[C@@H](O)[C@H](O)[C@H]3O)ccc12
output: 459

input: Give the measured AUC of viability dose-response curve of CNC(=O)c1ccc(-c2cnc3ncc(Cc4ccc5ncccc5c4)n3n2)cc1F .
output: 458

input: AUC of viability dose-response curve for C[C@]\12CC[C@H](O)CC1=C/CC3C2CC[C@@]\4(C)C3C\C=C4[N]5C=NC6=C5C=CC=C6 (stereo not given in full) ?
output: 428

input: Return reported AUC of viability dose-response curve; argument: CC[C@H](CC[C@@H](C)[C@H]1CC[C@H]2[C@@H]3C\C=C/4C[C@@H](O)CC[C@]4(C)[C@H]3CC[C@]12C)C(C)C
output: 452

input: Query (compound): CN(C)c1ccc(O)c2c1C[C@H]1C[C@H]3[C@H](N(C)C)C(O)=C(C(N)=O)C(=O)[C@@]3(O)C(O)=C1C2=O ; field requested: AUC of viability dose-response curve
output: 448
